Target: Ste12 (UniProt P13574)
Sequence (P13574 whole entry): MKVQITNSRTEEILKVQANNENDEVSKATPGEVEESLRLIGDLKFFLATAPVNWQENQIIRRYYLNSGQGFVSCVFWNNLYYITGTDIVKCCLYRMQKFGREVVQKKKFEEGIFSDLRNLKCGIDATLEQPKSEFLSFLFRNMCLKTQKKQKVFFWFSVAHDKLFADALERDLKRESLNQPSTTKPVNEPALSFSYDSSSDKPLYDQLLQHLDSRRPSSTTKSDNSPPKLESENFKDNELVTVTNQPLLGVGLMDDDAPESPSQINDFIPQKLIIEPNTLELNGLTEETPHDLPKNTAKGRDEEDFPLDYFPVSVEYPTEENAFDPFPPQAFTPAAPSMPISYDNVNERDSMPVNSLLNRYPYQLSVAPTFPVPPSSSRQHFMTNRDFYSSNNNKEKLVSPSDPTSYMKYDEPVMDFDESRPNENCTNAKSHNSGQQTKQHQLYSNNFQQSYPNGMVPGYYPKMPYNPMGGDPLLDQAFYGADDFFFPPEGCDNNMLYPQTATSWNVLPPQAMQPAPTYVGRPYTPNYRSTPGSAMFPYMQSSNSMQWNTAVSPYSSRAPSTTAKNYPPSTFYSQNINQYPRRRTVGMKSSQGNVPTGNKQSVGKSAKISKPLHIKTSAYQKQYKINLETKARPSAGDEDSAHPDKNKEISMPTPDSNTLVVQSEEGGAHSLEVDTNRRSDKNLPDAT
Test: PBM E-score (8-mer binding enrichment) (E-score (-0.5 to 0.5)); higher = stronger / more preferred TF binding
Settings: protein concentration: 200 nM; construct: GST-DNA-binding domain
Over roughly 33,000 sequences, “E-score (-0.5 to 0.5)” has its median near -0.01; the highest 2% begin near 0.26. For the sample, the highest values were picked, then their nearest neighbours and some sequences at random.
PBM E-score values by entry
measured-endpoint: PBM E-score

In [3]: df
Out[3]:
    sequence_input  measured_endpoint  reported
 0        CAACCGCG        PBM E-score    0.0561
 1        CAGTTTAC        PBM E-score    -0.053
 2        GCGTAGCA        PBM E-score    0.0572
 3        ACTTTTAA        PBM E-score     0.164
 4        CCTATTCC        PBM E-score    0.0843
 5        CCCATAAA        PBM E-score   -0.0663
 6        CCACTGGC        PBM E-score   -0.0254
 7        CACACCAA        PBM E-score     0.115
 8        GGAGCTTA        PBM E-score    -0.219
 9        ATACCTCA        PBM E-score    0.0605
10        GGGCCCCA        PBM E-score    -0.146
11        TACCTATA        PBM E-score     0.106
12        CAGTGTGC        PBM E-score    -0.187
13        CCAACGCG        PBM E-score    -0.107
14        GCGACCTA        PBM E-score    -0.062
15        ACCCGCGG        PBM E-score     0.176
16        CGAACGCG        PBM E-score    0.0317
17        CTGTAGTA        PBM E-score     0.186
18        AAACCGCC        PBM E-score     0.212
19        CACCTATC        PBM E-score    0.0217
20        AGTATGGG        PBM E-score   -0.0937
21        AAACCGCG        PBM E-score     0.287

Numbers sourced from the supplement of paper PMC3334620.
